method.notes: gradient 5% acetonitrile 3 min, to 50% in 2 min, to 85% in 15 min, held 3 min, 100 µL/min
applied.conditions: column: Zorbax Extend-C18 2.1 x 50 mm; eluents: water / acetonitrile, 0.1% formic acid
Listed here: items and their measured RP-LC retention time.
Your answer should be a plain number; it is taken to be in s.

molecule	RP-LC retention time (s)
Cc1cccc(NC(=O)C2CCN(S(=O)(=O)c3ccc4c(c3)sc(=O)n4C)CC2)c1C	830
Cc1ccc(-n2ncc3c(=O)n(Cc4nc(-c5ccccc5)no4)cnc32)cc1Cl	1190
COc1ccc2c(c1)C1(CCN(C(=O)Cc3ccc(C)cc3)C1)C(=O)N2 (centres undefined)	757

Now for a further molecule.
Query (molecule): CNC(=O)C1CCCN(c2nc3ncn(CC(=O)Nc4ccccc4C(=O)OC)c(=O)c3s2)C1 (centres undefined) ; field requested: RP-LC retention time
649

###

Listed here: items and their measured RP-LC retention time.
method.notes: gradient 5% acetonitrile 3 min, to 50% in 2 min, to 85% in 15 min, held 3 min, 100 µL/min
applied.conditions: column: Zorbax Extend-C18 2.1 x 50 mm; eluents: water / acetonitrile, 0.1% formic acid
Your answer should be a plain number; it is taken to be in s.

compound	reported.property	readout.value
Cc1cc(N2CCN(S(=O)(=O)c3ccc4cccc5c4c3CC5)CC2)nc(NC2CCCCC2)n1	RP-LC retention time	955
O=C(NC1CCCCC1)C1CCCN(S(=O)(=O)c2c[nH]c(C(=O)N3CCCC3)c2)C1 (stereo not given)	RP-LC retention time	759

Query (compound): CSc1ccc(-c2nc3ccccn3c2Nc2ccccc2C)cc1 ; field requested: RP-LC retention time
794

Query (compound): Cc1ccc(C(C)NC(=O)c2cn(-c3ccc(NC(=O)CC(C)C)cn3)cn2)cc1 (stereo not given) ; field requested: RP-LC retention time
872

Query (compound): O=C1CCc2cc(S(=O)(=O)NCc3ccccc3Cl)cc3c2N1CCC3 ; field requested: RP-LC retention time
863

Query (compound): O=S(=O)(c1cc(F)ccc1F)N1CCc2nc(-c3ccc(F)cc3)ncc2C1 ; field requested: RP-LC retention time
1100

Query (compound): O=C(NC1CC1)c1cc(-c2ccc(F)cc2)n[nH]1 ; field requested: RP-LC retention time
705

Query (compound): COc1cccc(NC(=O)C2CCCN(c3nc4ccsc4c(=O)n3-c3cccc(OC)c3)C2)c1 (stereo not given) ; field requested: RP-LC retention time
921

###

Listed here: items and their measured RP-LC retention time.
method.notes: gradient 5% acetonitrile 3 min, to 50% in 2 min, to 85% in 15 min, held 3 min, 100 µL/min
applied.conditions: column: Zorbax Extend-C18 2.1 x 50 mm; eluents: water / acetonitrile, 0.1% formic acid
Your answer should be a plain number; it is taken to be in s.

Some entries whose results are on file:
compound	units.symbol	RP-LC retention time
COc1ccc(OC)c(CCN2CC(=O)N(c3cccc(C)c3)[C@@H]3CS(=O)(=O)C[C@@H]32)c1	s	848
CCNC(=O)N1CCCC(c2cccc(C(=O)NCCCN3CCCCC3)c2)C1 (stereo not given)	s	596
NC(=O)c1cccc(-c2cc(Nc3ccc(OC(F)(F)F)cc3)ncn2)c1	s	765
COCc1cn(C2CN(C(=O)c3ccc(OC)nc3)C2)nn1	s	610
O=C(NCCc1ccccc1)Nc1cnn(-c2ncc(N3CCCC3)cn2)c1	s	778
COCCCNC(=O)CC1CCN(C(=O)c2[nH]c(C)c(C)c2C)CC1	s	667
Cc1cccc(Cn2cc(C(=O)O)c3ccccc3c2=O)c1	s	857
Cc1noc2ncnc(N3CCCC(C(=O)N4CCN(c5ccc(F)cc5)CC4)C3)c12 (stereo not given)	s	846
CCCNC(=O)c1cnn(-c2ccc(-c3nc(C(C)(C)C)no3)cn2)c1C	s	1070

Now for a further compound.
Query (compound): Cc1cccc(-c2cc3n(n2)CCCN(C(=O)c2n[nH]c4ccccc24)C3)c1 ; field requested: RP-LC retention time
860

###

Listed here: items and their measured RP-LC retention time.
method.notes: gradient 5% acetonitrile 3 min, to 50% in 2 min, to 85% in 15 min, held 3 min, 100 µL/min
applied.conditions: column: Zorbax Extend-C18 2.1 x 50 mm; eluents: water / acetonitrile, 0.1% formic acid
The reply should consist of the numeric value with the unit placed after it.

compound	RP-LC retention time
CCc1nc2cc(-c3noc(-c4ccc(F)c(F)c4)n3)ccc2o1	1200 s

Query (compound): Cc1nc(OCC(=O)Nc2ccc(Cl)c(Cl)c2)c2ccccc2n1 ; field requested: RP-LC retention time
859 s

Query (compound): O=C(Nc1ccc2c(c1)OCCO2)N1CC[C@@H]2CN(Cc3ccccc3)[C@@H]2C1 ; field requested: RP-LC retention time
796 s

Query (compound): O=c1cc(Cn2nc3ccc(-c4ccc(Cl)cc4)nn3c2=O)nc2ccccn12 ; field requested: RP-LC retention time
676 s

Query (compound): COc1ccc(OC)c2sc(NC(=O)c3ccc(Cl)s3)nc12 ; field requested: RP-LC retention time
990 s

Query (compound): CN(C)C(=O)c1n[nH]c2c1CN(C(=O)c1ccc(F)cc1F)CC2 ; field requested: RP-LC retention time
629 s

Query (compound): CCNS(=O)(=O)c1cccnc1Nc1cccc(C)c1 ; field requested: RP-LC retention time
998 s

Query (compound): CCOC(=O)c1noc2ncnc(N3CCc4ccccc43)c12 ; field requested: RP-LC retention time
948 s

Query (compound): COc1cc(NC(=O)CN2CCN(Cc3ccc(C)cc3)C(=O)C2=O)cc(OC)c1OC ; field requested: RP-LC retention time
709 s

Query (compound): CCCN1CCN(CCCNC(=O)CCCn2c(=O)c3cccn3c3ccc(F)cc32)CC1 ; field requested: RP-LC retention time
584 s

Query (compound): Cc1noc2nc(C)n(CC(=O)NC3CCCC3)c(=O)c12 ; field requested: RP-LC retention time
678 s

Query (compound): CC1(C)CC(=O)c2cn(-c3ccc(Cl)cc3)c(=O)c(C(=O)N3CCCC3)c2C1 ; field requested: RP-LC retention time
786 s

Query (compound): CCCCN1CCN(Cc2nc3nc(C)cc(N4CCCC4)n3n2)CC1 ; field requested: RP-LC retention time
574 s

Query (compound): O=c1ccc(N2CCCN(S(=O)(=O)c3cc(F)ccc3F)CC2)nn1-c1ccccc1 ; field requested: RP-LC retention time
853 s

Query (compound): O=C1CCc2cc(NC(=O)c3cccnc3)ccc2N1 ; field requested: RP-LC retention time
579 s

Query (compound): COc1cc(NC(=O)Cc2ccc(S(=O)(=O)C(C)C)cc2)c2ncccc2c1 ; field requested: RP-LC retention time
827 s

Query (compound): COc1cc(OC)cc(C(=O)N2C[C@@H]3C[C@H]2C[C@@H]3NS(=O)(=O)c2ccccc2)c1 ; field requested: RP-LC retention time
792 s

Query (compound): COc1ccc(-c2c(C)noc2NC(C)=O)cc1S(=O)(=O)Nc1ccc(S(N)(=O)=O)cc1 ; field requested: RP-LC retention time
636 s

Query (compound): CCOC(=O)C(C)Sc1nnc(CNC(=O)c2ccc(OC)cc2)n1C1CCCCC1 (centres undefined) ; field requested: RP-LC retention time
805 s

###

method.notes: gradient 5% acetonitrile 3 min, to 50% in 2 min, to 85% in 15 min, held 3 min, 100 µL/min
applied.conditions: column: Zorbax Extend-C18 2.1 x 50 mm; eluents: water / acetonitrile, 0.1% formic acid
Decision: RP-LC retention time beneath 900 s gives T; RP-LC retention time meeting or exceeding 900 s gives F.

molecule	cat
CCC(=O)NCc1nc2c(n1CC)CN(C(=O)c1ccc(Cl)cc1)CC2	T
Cc1ccc2c(c1)N(Cc1ccc(F)cc1)N=C(C(=O)N1CCC(C)CC1)S2(=O)=O	F
CCc1nncn1C1CCN(S(=O)(=O)c2cccc(F)c2)CC1	T
CCC(=O)N1CCc2cc(S(=O)(=O)CCC(=O)NC3CCCc4ccccc43)ccc21 (stereo not given)	T
Cc1ccc(N2CC(c3noc(-c4sccc4C)n3)CC2=O)cc1 (stereo not given)	F
N#Cc1ccc(NC(=O)C2CCCN(S(=O)(=O)c3cc(-c4noc(C5CCC5)n4)cs3)C2)cc1 (stereo not given)	F

Record CC1=C(c2ccc(C)cc2)S(=O)(=O)N=C1N1CCC(NC(=O)C2CCC2)CC1 : is its RP-LC retention time strictly below 900 s?
T

Record CCC(=O)N1CCc2c([nH]c3ccccc23)C12C(=O)N(C)c1ccccc12 (stereo not given) : is its RP-LC retention time strictly below 900 s?
T

Record CCCNC(C)C(=O)Nc1c(C)csc1C(=O)OC (stereo not given) : is its RP-LC retention time strictly below 900 s?
T

Record COc1ccc(OC)c(NC(=O)C2c3ccccc3C(=O)N3CCc4cc(OC)c(OC)cc4C23)c1 (stereo not given) : is its RP-LC retention time strictly below 900 s?
T

Record COc1ccc(S(=O)(=O)NCCc2c[nH]c3ccc(F)cc23)cc1 : is its RP-LC retention time strictly below 900 s?
T

Record COc1ccccc1-c1csc(NC(=O)c2sc(-c3ccccc3)nc2C)n1 : is its RP-LC retention time strictly below 900 s?
F

Record Cn1cc(-c2cc3n(n2)CCC(=O)N3CC(=O)N2CCN(c3ccccn3)CC2)c2ccccc21 : is its RP-LC retention time strictly below 900 s?
T

Record O=c1ccc(-c2nc(-c3ccc(F)cc3)no2)nn1Cc1cc(F)cc(F)c1 : is its RP-LC retention time strictly below 900 s?
F

Record CNC(=O)C1CCCN(S(C)(=O)=O)CCC(=O)NCC1 (stereo not given) : is its RP-LC retention time strictly below 900 s?
T
